System Name: Melanocortin receptor 4 (Homo sapiens)
Sequence (P32245 whole entry): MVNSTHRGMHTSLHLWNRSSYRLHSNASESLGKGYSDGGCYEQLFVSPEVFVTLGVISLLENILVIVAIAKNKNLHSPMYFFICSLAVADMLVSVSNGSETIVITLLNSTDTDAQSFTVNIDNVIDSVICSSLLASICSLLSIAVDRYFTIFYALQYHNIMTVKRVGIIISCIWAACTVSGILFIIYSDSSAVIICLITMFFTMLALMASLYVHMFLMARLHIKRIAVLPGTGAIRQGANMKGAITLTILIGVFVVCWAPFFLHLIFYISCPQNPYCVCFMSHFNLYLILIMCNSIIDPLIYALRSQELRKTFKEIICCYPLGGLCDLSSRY
Test Name: Displacement of [125I]-NDP-alpha-MSH from human MC4R expressed in HEK293 cells after 40 mins by Wallac 1470 gamma counting
Assay type: cell-based
Positions of bridges follow the written chain, without caps; N, C: chain ends. Non-standard residues stand in square brackets, D forms with d. Residues, ends and D or L forms follow the SMILES beside them. 2Nal = N[C@@H](Cc1ccc2ccccc2c1)C(=O)O
Observable: IC50

Previously resolved entries follow.
* CC(=O)N[C@H]1CC(=O)NCCCC[C@@H](C(N)=O)NC(=O)[C@@H](CC(N)=O)NC(=O)[C@H](Cc2ccccc2)NC(=O)[C@H](Cc2c[nH]c3ccccc23)NC(=O)[C@H](CCCNC(=N)N)NC1=O (Ac-DRWF[dN]K-NH2; lactam 1-6) | Not Active
* C[C@@H]1NC(=O)[C@@H](CCC(N)=O)NC(=O)[C@H](Cc2ccccc2)NC(=O)[C@H](Cc2c[nH]c3ccccc23)NC(=O)[C@H](CCCNC(=N)N)NC(=O)CC[C@@H](C(N)=O)NC(=O)[C@H](Cc2ccccc2)NC1=O (RWF[dQ]AFE-NH2; lactam N-7) | Not Active
* CC(=O)N[C@H]1CC(=O)NCCCC[C@@H](C(N)=O)NC(=O)[C@@H](CC(N)=O)NC(=O)[C@H](Cc2ccc3ccccc3c2)NC(=O)[C@H](Cc2c[nH]c3ccccc23)NC(=O)[C@H](CCCNC(=N)N)NC1=O (Ac-DRW[2Nal][dN]K-NH2; lactam 1-6) | Not Active
* C[C@@H]1NC(=O)[C@@H](CC(N)=O)NC(=O)[C@H](Cc2ccc3ccccc3c2)NC(=O)[C@H](Cc2c[nH]c3ccccc23)NC(=O)[C@H](CCCNC(=N)N)NC(=O)CC[C@@H](C(N)=O)NC(=O)[C@H](Cc2ccccc2)NC1=O (RW[2Nal][dN]AFE-NH2; lactam N-7) | Not Active
* C[C@@H]1NC(=O)[C@H](Cc2cnc[nH]2)NC(=O)[C@@H](Cc2ccccc2)NC(=O)[C@H](Cc2c[nH]c3ccccc23)NC(=O)[C@H](CCCNC(=N)N)NC(=O)CC[C@@H](C(N)=O)NC(=O)[C@H](Cc2ccccc2)NC1=O (RW[dF]HAFE-NH2; lactam N-7) | Not Active
* CC(=O)N[C@H]1CC(=O)NCCCC[C@@H](C(N)=O)NC(=O)[C@@H](CCCNC(=N)N)NC(=O)[C@H](Cc2ccccc2)NC(=O)[C@H](Cc2c[nH]c3ccccc23)NC(=O)[C@H](CCCNC(=N)N)NC1=O (Ac-DRWF[dR]K-NH2; lactam 1-6) | Not Active
* C[C@@H]1NC(=O)[C@H](CC(N)=O)NC(=O)[C@H](Cc2ccccc2)NC(=O)[C@H](Cc2c[nH]c3ccccc23)NC(=O)[C@H](CCCNC(=N)N)NC(=O)CC[C@@H](C(N)=O)NC(=O)[C@H](Cc2ccccc2)NC1=O (RWFNAFE-NH2; lactam N-7) | Not Active
* C[C@@H]1NC(=O)[C@@H](Cc2cnc[nH]2)NC(=O)[C@H](Cc2ccccc2)NC(=O)[C@H](Cc2c[nH]c3ccccc23)NC(=O)[C@H](CCCNC(=N)N)NC(=O)CC[C@@H](C(N)=O)NC(=O)[C@H](Cc2ccccc2)NC1=O (RWF[dH]AFE-NH2; lactam N-7) | Not Active
* C[C@@H]1NC(=O)[C@H](CC(N)=O)NC(=O)[C@@H](Cc2ccccc2)NC(=O)[C@H](Cc2c[nH]c3ccccc23)NC(=O)[C@H](CCCNC(=N)N)NC(=O)CC[C@@H](C(N)=O)NC(=O)[C@H](Cc2ccccc2)NC1=O (RW[dF]NAFE-NH2; lactam N-7) | Not Active

Please find the next compound below.
Entry C[C@@H]1NC(=O)[C@@H](CCC(N)=O)NC(=O)[C@H](Cc2ccc3ccccc3c2)NC(=O)[C@H](Cc2c[nH]c3ccccc23)NC(=O)[C@H](CCCNC(=N)N)NC(=O)CC[C@@H](C(N)=O)NC(=O)[C@H](Cc2ccccc2)NC1=O (RW[2Nal][dQ]AFE-NH2; lactam N-7) ; assay system Melanocortin receptor 4 (Homo sapiens); IC50 recorded at Not Active
